Value source: patent US20230116703A1

- target_entity: human 5-HT2C receptor (Homo sapiens, UniProt P28335)
- Sequence (P28335 33-458): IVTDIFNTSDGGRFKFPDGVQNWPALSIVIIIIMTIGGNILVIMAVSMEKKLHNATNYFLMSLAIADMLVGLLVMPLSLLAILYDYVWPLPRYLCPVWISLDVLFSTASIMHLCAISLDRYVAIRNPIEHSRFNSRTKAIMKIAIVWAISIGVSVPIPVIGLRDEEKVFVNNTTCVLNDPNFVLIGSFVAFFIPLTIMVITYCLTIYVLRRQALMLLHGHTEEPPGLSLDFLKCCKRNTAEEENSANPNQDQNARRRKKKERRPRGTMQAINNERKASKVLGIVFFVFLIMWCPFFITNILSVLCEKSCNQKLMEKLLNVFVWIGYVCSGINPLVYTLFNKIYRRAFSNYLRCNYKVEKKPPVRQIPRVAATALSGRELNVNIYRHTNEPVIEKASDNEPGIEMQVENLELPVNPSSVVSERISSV
- experiment_summary: cell-based
- setup_conditions: Ca^2+ flux, agonist
attribute_measured: pEC50
One number for each entry, as −log10 of the molar value.

Examples from the recorded data:
>>> test_value("CCCN1C[C@H](C(=O)N(CC)CC)C=C2c3cccc4[nH]cc(c34)C[C@H]21 [Compound 1]")
7.93
>>> test_value("CCN(CC)C(=O)[C@@H]1C=C2c3cccc4[nH]cc(c34)C[C@H]2N(CCc2ccccc2OC)C1 [Compound 11]")
7.13
>>> test_value("CCN(CC)C(=O)[C@@H]1C=C2c3cccc4[nH]cc(c34)C[C@H]2N(CCCF)C1 [Compound 2]")
8.36

# ---- query compound ----
Q) GET /values?readout=pEC50&item= CCC(CC)NC(=O)[C@H]1C=C2c3cccc4[nH]cc(c34)C[C@H]2N(C)C1 [Int14a]
A) 6.29
